Every entry's value here was drawn from paper PMC5077133.

# PROTOCOL_TEXT: Pharmacokinetic study in mice
# Format: in vivo, male CD1 mice
# STATED_CONDITIONS: mouse, plasma; IV 2.5 mg/kg, male CD1 mice
PROPERTY: AUC(0-t) (ng·h/mL)
// note: answer is a bare numeric in ng·h/mL

Inquiry: Name the recorded AUC(0-t) for "CN(C)c1ccc(/C=C/c2cc(-c3ccc(Br)cc3)cc(-c3ccc(Br)cc3)[o+]2)cc1" .
Reply text: 1340

----------
# PROTOCOL_TEXT: Lipid II binding by Surface Plasmon Resonance
# STATED_CONDITIONS: SPR, immobilized 3-Lipid II, 25°C
pKd: −log10 of the molar value.
Classification field: enter Fulfilled for pKd values not below 5, Not fulfilled for values below it.

Check out these entries, answers already filled in.
CN(C)c1ccc(/C=C/c2cc(-c3ccc(Cl)cc3)cc(-c3ccc(Cl)cc3)[o+]2)cc1.F[B-](F)(F)F [6jc41-1] = Not fulfilled
Cc1ccc(-c2cc(/C=C/c3cn(C)c4ccccc34)[o+]c(-c3ccc(C)c(C)c3)c2)cc1C.F[B-](F)(F)F [6jc66-4] = Not fulfilled
CN1/C(=C/C=C/c2cc(-c3ccccc3)cc(-c3ccccc3)[o+]2)C(C)(C)c2ccccc21 [BAS-00127538, reference compound] = Fulfilled
Cc1ccc(-c2cc(/C=C/c3cc4c5c(c3)CCCN5CCC4)[o+]c(-c3ccc(C)c(C)c3)c2)cc1C.F[B-](F)(F)F [6jc-69-3] = Fulfilled
CCc1ccc(-c2cc(/C=C/c3cc4c5c(c3)CCCN5CCC4)[o+]c(-c3ccc(CC)cc3)c2)cc1.F[B-](F)(F)F [6jc-69-1] = Not fulfilled

Now let's try a different one.
Inquiry: Test whether the molecule CCc1ccc(-c2cc(/C=C/c3c[nH]c4ccccc34)[o+]c(-c3ccc(CC)cc3)c2)cc1.F[B-](F)(F)F [6jc64-3] records pKd of 5 or higher.
Reply text: Fulfilled
